# System: THP-1 cells
# EXPERIMENT SUMMARY: LPS-stimulated cytokine (TNFα) release in THP-1
# Type: cell-based, Human
# CONDITIONS: Homo sapiens, THP-1; Table 4; LPS 100 ng/mL, 5 hours, TNF-α ELISA; read-out: Inhibition IC50 (nM) of cytokines (TNFα) against LPS-stimulated inflammatory responses in THP-1 cells
OUTCOME MEASURE: IC50

Example results:
COMPOUND: CC(C)(O)c1cc2nn(CCN3CCN(CC(=O)N4CCC5(CC4)CN(c4cccc6c4C(=O)N(C4CCC(=O)NC4=O)C6=O)C5)C3=O)cc2cc1NC(=O)c1cccc(C(F)(F)F)n1 (stereo not drawn)
IC50: 1000 to 10000 nM
//
COMPOUND: COc1cc2nn(CCN3CCN(CC(=O)N4CCC5(CC4)CCN(c4ncc(Nc6cccc7c6C(=O)N(C6CCC(=O)NC6=O)C7=O)cn4)CC5)CC3)cc2cc1NC(=O)c1cccc(C(F)(F)F)n1 (stereo not drawn)
IC50: 1000 to 10000 nM
//
COMPOUND: COc1cc2nn(CCN3CCN(CC(=O)N4CC5(CC(CC(=O)N[C@H](C(=O)N6C[C@H](O)C[C@H]6C(=O)N[C@@H](C)c6ccc(-c7scnc7C)cc6)C(C)(C)C)C5)C4)CC3)cc2cc1NC(=O)c1cccc(C(F)(F)F)n1
IC50: 1000 to 10000 nM
//
COMPOUND: CC(C)(O)c1cc2nn(CCN3CCN(CC(=O)N4CCC5(CC4)CCN(c4cccc6c4C(=O)N(C4CCC(=O)NC4=O)C6=O)CC5)C3=O)cc2cc1NC(=O)c1cccc(C(F)(F)F)n1 (stereo not drawn)
IC50: 1000 to 10000 nM
//
COMPOUND: COc1cc2nn(CCN3CCN(CC(=O)N4CCC5(CCC(C(=O)N[C@H](C(=O)N6C[C@H](O)C[C@H]6C(=O)N[C@@H](C)c6ccc(-c7scnc7C)cc6)C(C)(C)C)CC5)CC4)CC3)cc2cc1NC(=O)c1cccc(C(F)(F)F)n1
IC50: 1000 to 10000 nM

Next, consider the following compound.
Problem: If you can, please state the reported IC50 value of COc1cc2nn(CCN3CCN(CC(=O)N4CCC5(CCC(N[C@H](C(=O)N6C[C@H](O)C[C@H]6C(=O)N[C@@H](C)c6ccc(-c7scnc7C)cc6)C(C)(C)C)CC5)CC4)C3=O)cc2cc1NC(=O)c1cccc(C(F)(F)F)n1 .
Solution: 100 to 1000 nM

---

# TEST SYSTEM: IRAK4 kinase (Homo sapiens)
# Construct: purchased Carna 09-145
# Sequence (Q9NWZ3 whole entry): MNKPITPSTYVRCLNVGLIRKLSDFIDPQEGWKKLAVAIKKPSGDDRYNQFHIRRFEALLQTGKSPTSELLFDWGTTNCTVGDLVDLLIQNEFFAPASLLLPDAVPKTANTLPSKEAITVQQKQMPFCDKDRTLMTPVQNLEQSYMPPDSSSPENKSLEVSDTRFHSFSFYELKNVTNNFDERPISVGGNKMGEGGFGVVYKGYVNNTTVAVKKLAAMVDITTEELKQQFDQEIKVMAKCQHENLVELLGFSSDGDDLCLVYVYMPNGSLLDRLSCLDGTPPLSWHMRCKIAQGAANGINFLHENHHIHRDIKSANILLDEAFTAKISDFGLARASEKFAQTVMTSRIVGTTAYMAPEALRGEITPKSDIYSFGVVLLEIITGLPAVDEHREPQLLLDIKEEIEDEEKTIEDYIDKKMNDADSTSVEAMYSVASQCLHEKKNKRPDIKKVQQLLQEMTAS
# EXPERIMENT SUMMARY: Compound inhibition of IRAK4 kinase activity (fluorescence microfluidic mobility shift assay)
# Type: biochemical
# CONDITIONS: Table 2; 10 μM ATP, 6 nM IRAK4 kinase
# Experimental: Based on the experimental method of fluorescence microfluidic mobility shift assay, the IC50 value of the compound for competitive binding of ATP to IRAK4 kinase was determined. […] 5) Data reading: CaliperEZ Reader II instrument was used to read the conversion rate data. […] 6) Data calculation: the conversion rate data was copied from CaliperEZ Reader II, and the conversion rate was converted into inhibition rate data. […]
pIC50: −log10 of the molar value.
pIC50 overview

Problem: If you can, please state the reported pIC50 value of COc1cc2nn(CCC3CCN(CC(=O)N4CCC5(CCC(C(=O)N[C@H](C(=O)N6C[C@H](O)C[C@H]6C(=O)N[C@@H](C)c6ccc(-c7scnc7C)cc6)C(C)(C)C)CC5)CC4)CC3)cc2cc1NC(=O)c1cccc(C(F)(F)F)n1 [III-68] .
Solution: > 7.00

Problem: Please do the same for COc1cc2nn(CCN3CCN(CC(=O)N4CCC5(CC4)CCN(c4ncc(Nc6cccc7c6C(=O)N(C6CCC(=O)NC6=O)C7=O)cn4)CC5)CC3)cc2cc1NC(=O)c1cccc(C(F)(F)F)n1 (centres unmarked) [III-30] as well.
Solution: > 7.00

Problem: Please do the same for COc1cc2nn(CCN3CCN(CC(=O)N4CC5(C4)CN(c4cccc6c4C(=O)N(C4CCC(=O)NC4=O)C6=O)C5)CC3)cc2cc1NC(=O)c1cccc(C(F)(F)F)n1 (centres unmarked) [III-61] as well.
Solution: > 7.00

Problem: Please do the same for CC(C)(O)c1cc2nn(CCN3CCN(CC(=O)NCCOCCOCCNc4cccc5c4C(=O)N(C4CCC(=O)NC4=O)C5=O)C3=O)cc2cc1NC(=O)c1cccc(C(F)(F)F)n1 (centres unmarked) [III-2] as well.
Solution: 6.00 to 7.00

Problem: Please do the same for COc1cc2nn(CCC3CCN(CC(=O)N4CCC5(CC4)CCN(c4cccc6c4C(=O)N(C4CCC(=O)NC4=O)C6=O)CC5)CC3)cc2cc1NC(=O)c1cccc(C(F)(F)F)n1 (centres unmarked) [III-66] as well.
Solution: > 7.00
